biological target: BTK-wt (Homo sapiens); construct: purchased Reaction Biology Corporation; test: HotSpot kinase enzymatic assay, BTK-wt; type: biochemical; settings: 10 µM; vs negative control (DMSO); mean of two separate experiments; NA = not active at 10 µM; read-out: % Inhibition (10 µM) BTK-wt
Sequence (Q06187 whole entry): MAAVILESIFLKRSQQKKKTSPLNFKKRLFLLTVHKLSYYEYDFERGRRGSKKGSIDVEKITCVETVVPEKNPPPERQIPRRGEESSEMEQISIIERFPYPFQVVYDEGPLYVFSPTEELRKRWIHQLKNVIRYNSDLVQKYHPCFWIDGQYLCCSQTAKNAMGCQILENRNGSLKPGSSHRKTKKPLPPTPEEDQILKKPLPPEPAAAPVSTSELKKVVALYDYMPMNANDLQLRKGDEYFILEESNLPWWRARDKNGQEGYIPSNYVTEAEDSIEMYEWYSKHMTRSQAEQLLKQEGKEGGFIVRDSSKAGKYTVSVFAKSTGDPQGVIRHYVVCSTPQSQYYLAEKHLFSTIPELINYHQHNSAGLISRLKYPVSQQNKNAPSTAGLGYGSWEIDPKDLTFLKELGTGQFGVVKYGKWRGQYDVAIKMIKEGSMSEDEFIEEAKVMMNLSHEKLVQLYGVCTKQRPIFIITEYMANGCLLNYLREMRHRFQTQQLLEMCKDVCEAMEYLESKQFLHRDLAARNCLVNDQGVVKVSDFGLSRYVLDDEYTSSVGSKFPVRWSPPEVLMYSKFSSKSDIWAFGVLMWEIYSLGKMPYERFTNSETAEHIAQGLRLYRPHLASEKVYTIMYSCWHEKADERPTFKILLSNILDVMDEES
# cutoff 30% applies to inhibition at 10 µM; >= gives Condition met, < gives Condition not met

Study these solved cases before continuing.
[[record]]
molecule = "CC#CC(=O)O[C@H]1Cc2cc3ccc(=O)oc3cc2OC1(C)C"
systemundertest = "BTK-wt (Homo sapiens)"
grouplabel = "Condition met"

[[record]]
molecule = "CC(C)=CC(=O)O[C@H]1Cc2cc3ccc(=O)oc3cc2OC1(C)C"
systemundertest = "BTK-wt (Homo sapiens)"
grouplabel = "Condition met"

[[record]]
molecule = "CC1(C)Oc2cc3oc(=O)ccc3cc2C[C@@H]1O [Compound 2, S-(+)-Decursinol]"
systemundertest = "BTK-wt (Homo sapiens)"
grouplabel = "Condition not met"

[[record]]
molecule = "CC1(C)Oc2cc3oc(=O)ccc3cc2C[C@@H]1OC(=O)/C=C/CBr"
systemundertest = "BTK-wt (Homo sapiens)"
grouplabel = "Condition not met"

[[record]]
molecule = "C/C=C/C(=O)O[C@H]1Cc2cc3ccc(=O)oc3cc2OC1(C)C"
systemundertest = "BTK-wt (Homo sapiens)"
grouplabel = "Condition not met"


**Q:** Entry C=CC(=O)O[C@H]1Cc2cc3ccc(=O)oc3cc2OC1(C)C : is its inhibition at 10 µM no less than 30%?
**A:** Condition met

**Q:** Entry CC1(C)Oc2cc3oc(=O)ccc3cc2C[C@@H]1OC(=O)CCl : is its inhibition at 10 µM no less than 30%?
**A:** Condition met

**Q:** Entry C=CS(=O)(=O)O[C@H]1Cc2cc3ccc(=O)oc3cc2OC1(C)C : is its inhibition at 10 µM no less than 30%?
**A:** Condition met
